target.or.system: Glutamate [NMDA] receptor
test.summary: Inhibition of [3H]Ro-256981 binding to N-methyl-D-aspartate glutamate receptor
pIC50: −log10 of the molar value.
Please enter Satisfied where pIC50 is greater than or equal to 7, and Not satisfied where it is lower.

- compound: "O=C(c1cc2ccc(O)cc2[nH]1)N1CCC(Cc2ccccc2)CC1"
  target.or.system: "Glutamate [NMDA] receptor"
  assigned.category: "Satisfied"
- compound: "O=c1[nH]c2ccc([S+]([O-])CCN3CCC(Cc4ccc(F)cc4)CC3)cc2o1 (stereo unspecified) [BESONPRODIL]"
  target.or.system: "Glutamate [NMDA] receptor"
  assigned.category: "Satisfied"
- compound: "O=C(c1cc2cc(O)ccc2[nH]1)N1CCC(Cc2ccccc2)CC1"
  target.or.system: "Glutamate [NMDA] receptor"
  assigned.category: "Satisfied"
- compound: "O=C(c1cc2ccc(O)cc2[nH]1)N1CCC(OCc2ccccc2)CC1"
  target.or.system: "Glutamate [NMDA] receptor"
  assigned.category: "Satisfied"
- compound: "O=C(c1cc2ccc(O)cc2[nH]1)N1CCC(CCc2ccccc2)CC1"
  target.or.system: "Glutamate [NMDA] receptor"
  assigned.category: "Not satisfied"
- compound: "O=C(/C=C/c1ccc(O)cc1)N1CCC(Cc2ccccc2)CC1"
  target.or.system: "Glutamate [NMDA] receptor"
  assigned.category: "Not satisfied"
- compound: "O=C(c1cc2c(O)cccc2[nH]1)N1CCC(Cc2ccccc2)CC1"
  target.or.system: "Glutamate [NMDA] receptor"
  assigned.category: "Satisfied"
- compound: "C[C@@H](CN1CCC(Cc2ccccc2)CC1)[C@@H](O)c1ccc(O)cc1"
  target.or.system: "Glutamate [NMDA] receptor"
  assigned.category: "Satisfied"
- compound: "O=C(c1cc2c(O)cc(O)cc2[nH]1)N1CCC(Cc2ccccc2)CC1"
  target.or.system: "Glutamate [NMDA] receptor"
  assigned.category: "Satisfied"
- compound: "O=C(c1cc2cccc(O)c2[nH]1)N1CCC(Cc2ccccc2)CC1"
  target.or.system: "Glutamate [NMDA] receptor"
  assigned.category: "Not satisfied"

---

# IC50 annotations
target.or.system: Glutamate NMDA receptor; GRIN1/GRIN2B (Homo sapiens, UniProt Q05586+Q13224)
Sequence (Q13224 whole entry, other chains not shown): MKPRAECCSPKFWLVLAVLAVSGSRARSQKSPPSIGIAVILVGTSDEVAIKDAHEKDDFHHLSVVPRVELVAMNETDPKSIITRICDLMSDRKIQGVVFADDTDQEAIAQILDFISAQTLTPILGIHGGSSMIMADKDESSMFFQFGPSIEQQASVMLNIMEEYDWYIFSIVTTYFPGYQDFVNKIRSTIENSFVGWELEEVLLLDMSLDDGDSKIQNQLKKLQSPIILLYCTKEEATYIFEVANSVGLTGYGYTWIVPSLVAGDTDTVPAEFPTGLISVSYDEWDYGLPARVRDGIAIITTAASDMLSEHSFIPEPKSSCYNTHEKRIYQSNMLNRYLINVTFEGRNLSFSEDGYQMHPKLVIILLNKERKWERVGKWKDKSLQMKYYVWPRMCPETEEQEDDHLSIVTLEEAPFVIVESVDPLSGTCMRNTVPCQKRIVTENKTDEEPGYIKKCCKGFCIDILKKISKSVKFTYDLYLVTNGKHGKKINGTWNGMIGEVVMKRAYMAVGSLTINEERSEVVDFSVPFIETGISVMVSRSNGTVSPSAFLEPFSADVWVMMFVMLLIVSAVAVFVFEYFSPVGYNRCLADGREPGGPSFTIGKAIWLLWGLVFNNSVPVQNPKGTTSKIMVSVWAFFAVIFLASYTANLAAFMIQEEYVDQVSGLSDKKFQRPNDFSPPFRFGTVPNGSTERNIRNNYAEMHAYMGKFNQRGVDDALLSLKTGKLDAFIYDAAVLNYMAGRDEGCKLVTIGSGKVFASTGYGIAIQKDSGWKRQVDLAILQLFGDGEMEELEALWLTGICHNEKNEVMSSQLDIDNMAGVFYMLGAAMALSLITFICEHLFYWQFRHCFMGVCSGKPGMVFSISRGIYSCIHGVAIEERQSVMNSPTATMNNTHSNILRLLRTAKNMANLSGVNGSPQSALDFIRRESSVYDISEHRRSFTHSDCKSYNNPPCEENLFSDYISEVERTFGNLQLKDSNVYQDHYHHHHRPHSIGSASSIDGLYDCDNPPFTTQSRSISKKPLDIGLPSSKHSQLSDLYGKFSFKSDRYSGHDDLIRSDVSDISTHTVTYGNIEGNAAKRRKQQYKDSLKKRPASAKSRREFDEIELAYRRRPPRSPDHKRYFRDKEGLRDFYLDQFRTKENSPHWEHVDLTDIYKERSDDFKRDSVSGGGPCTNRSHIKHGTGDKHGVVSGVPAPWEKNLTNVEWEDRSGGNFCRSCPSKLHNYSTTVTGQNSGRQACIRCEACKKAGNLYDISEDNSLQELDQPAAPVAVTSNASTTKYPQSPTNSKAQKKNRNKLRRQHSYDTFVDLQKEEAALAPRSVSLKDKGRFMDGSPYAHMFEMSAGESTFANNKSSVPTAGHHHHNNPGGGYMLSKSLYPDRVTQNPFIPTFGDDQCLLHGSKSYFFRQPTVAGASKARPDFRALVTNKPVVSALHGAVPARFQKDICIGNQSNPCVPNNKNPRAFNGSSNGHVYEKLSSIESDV
test.summary: Inhibition of N-methyl-D-aspartate glutamate receptor-evoked increase of intracellular Ca+ in cells expressing NMDA glutamate receptor 1/2B
Type: functional, cell-based

- compound: "O=C(c1cc2cc(O)cc(O)c2[nH]1)N1CCC(Cc2ccccc2)CC1"
  inequality.sign: "="
  IC50 [nM]: 52
- compound: "C[C@@H](CN1CCC(Cc2ccccc2)CC1)[C@@H](O)c1ccc(O)cc1"
  inequality.sign: "="
  IC50 [nM]: 57
- compound: "O=C(c1cc2cc(O)ccc2[nH]1)N1CCC(Cc2ccccc2)CC1"
  inequality.sign: "="
  IC50 [nM]: 40
- compound: "O=C(c1cc2ccc(O)cc2[nH]1)N1CCC(c2ccccc2)CC1"
  inequality.sign: ">"
  IC50 [nM]: 8000
